B1: PBXIP1 (parent)
chain: LQQLRARLQGLEADCVRGPDGVCL

variants of: B1; assay: protein stability index of a GFP-peptide fusion (GPS, HEK-293T) (PSI 1-6); higher = more stable; details: c terminus: a fixed tail appended;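 further: lentivirally expressed fusions sorted by FACS into six bins by GFP to DsRed ratio, PSI derived from sequencing read proportions per bin multiplied by bin number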
List of protein stability index values.
Respond numerically, and do not add a unit to the figure.

Guide cases for protein stability index, answers given:
L24W; 2.15
A6W; 3.19
P19K; 1.98
L4R; 3.19
R17Q; 3.04
D20Y; 1.26

q: # input variant: "D14M" ; wanted: its protein stability index
a: 3.39

q: Field entry: "Q2R"
a: 1.82

q: Field entry: "V16L"
a: 1.59

q: Field entry: "R7D"
a: 3.89

q: Field entry: "R17G"
a: 2.55

q: Field entry: "L4S"
a: 3.01

q: Field entry: "L11E"
a: 3.75

q: Field entry: "R7I"
a: 2.57

q: Field entry: "L4F"
a: 2.97

q: Field entry: "V16H"
a: 1.74

q: Field entry: "L24P"
a: 2.79
